ELISA OD overview
Molecular target: T1, 15-mer peptide LGIWGCSGKLICTTT (SEQ ID NO:1) (HIV, not fully specified; cysteine pairing not given here)
T1 construct: also called U1731DB060-1; U173DB060-1
T1 peptide: LGIWGCSGKLICTTT
Experiment: indirect ELISA; 15-mer peptide coated 1 ug/ml in DTT; antibody at 111 ng/ml
Description: In a first study, an ELISA was prepared in which the linear (reduced) form of the 15-mer peptide […] (SEQ ID NO:1) was coated onto a solid support and contacted with various concentrations of peptides #1, #2, #3, #4, #5, #6, #7, #8, #9Q, #10Q, and #11Q. A mouse, anti-human IgG Fc-HRP at 0.2 μg/ml was used as a secondary antibody.
No end group written: not given here.
Test Readout: ELISA OD (OD)

1. HIV-binding peptide #10Q (antibody, V domains shown, also called antibody#10-5Q; U1205DB020-10) VH: QVQLQESGGGVVQPGRSLRLSCAASGFTFSSYAIHWVRQAPGKGLEWVAVISYDGSNRYYADSVKGRFTISRDNSKNTLYLQMNSLRPEDTAVYYCARDRFSAVASTPTYHNYFYMDVWGKGTTVTVSS = 0.377
2. HIV-binding peptide #11Q (antibody, V domains shown, Heavy chain only with variant CH1/CH2 (hinge cysteines replaced by serines)) VH: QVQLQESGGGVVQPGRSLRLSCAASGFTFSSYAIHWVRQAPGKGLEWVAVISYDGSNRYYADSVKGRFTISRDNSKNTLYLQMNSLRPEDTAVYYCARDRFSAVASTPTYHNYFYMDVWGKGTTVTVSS = 0.127
3. HIV-binding peptide #8 (antibody, human IgG1, kappa, V domains shown, Recombinant, fully human immunoglobulin; also called U1205DB020-8) VH: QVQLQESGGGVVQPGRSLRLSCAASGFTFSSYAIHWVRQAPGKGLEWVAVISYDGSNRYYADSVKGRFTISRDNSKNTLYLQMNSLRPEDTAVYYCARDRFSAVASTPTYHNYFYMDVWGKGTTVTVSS VL: DIQMTQSPSSLSASVGDRVTITCQASQDISNYLAWYQQKPGQAPRLLIYDASNLETGVPSRFSGSGSGTDFTLTISSLQPEDLATYYCQQYDNLPYTFGQGTKLEIKR = 0.1
4. HIV-binding peptide #7 (antibody, human IgG1, kappa, V domains shown, also called U1205DB020-7) VH: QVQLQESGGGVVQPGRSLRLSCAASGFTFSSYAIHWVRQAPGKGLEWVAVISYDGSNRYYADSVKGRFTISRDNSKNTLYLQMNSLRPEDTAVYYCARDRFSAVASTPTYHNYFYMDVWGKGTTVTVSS VL: DIQMTQSPSSLSASVGDRVTITCQASQDVSNYLAWYQQKPGQAPRLLIYDASNLETGVPSRFSGSGSGTDFTLTISSLQPEDLATYYCQQYDNLPYTFGQGTKLEIKR = 0.084
5. HIV-binding peptide #5 (antibody, human IgG1, kappa, V domains shown, Recombinant, fully human immunoglobulin; also called U1205DB020-5) VH: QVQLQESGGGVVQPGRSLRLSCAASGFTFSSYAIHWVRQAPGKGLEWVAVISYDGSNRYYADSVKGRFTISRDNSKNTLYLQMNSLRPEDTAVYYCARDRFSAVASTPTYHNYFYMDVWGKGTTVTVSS VL: DIQMTQSPSSLSASVGDRVTITCQASQDVSNYLAWYQQKPGQAPRLLIYDASNLETGVPSRFSGSGSGTDFTLTISSLQPEDLATYYCQQYDNTPYTFGQGTKLEIKR = 0.071
6. HIV-binding peptide #3 (antibody, human IgG1, kappa, V domains shown, Recombinant, fully human immunoglobulin; also called U1205DB020-3) VH: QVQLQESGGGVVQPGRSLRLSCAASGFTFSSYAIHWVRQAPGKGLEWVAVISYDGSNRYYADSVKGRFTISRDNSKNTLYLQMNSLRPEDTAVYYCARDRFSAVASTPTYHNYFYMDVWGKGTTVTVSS VL: DIQMTQSPSSLSASVGDRVTITCQASQDVNNYLAWYQQKPGQAPRLLIYDASNLETGVPSRFSGSGSGTDFTLTISSLQPEDLATYYCQQYDNLPYTFGQGTKLEIKR = 0.072
